Origin of values: PubChem BioAssay (NCI)

Test system: SK-MEL-2 melanoma
assayName: NCI tumour cell line growth inhibition, 48 h
TGI values, listed per item
Numbers only; they are read as µM.

TGI recorded for this compound, `O=c1[nH]cnc2c1nnn2CCCCCCCCCCCCn1nnc2c(=O)[nH]cnc21` , is 51

New cases:
TGI recorded for this compound, `CCc1ccccc1NNc1cc(=O)[nH]c(=O)[nH]1` , is 56.2

###

Test system: NCI/ADR-RES ovarian
assayName: NCI tumour cell line growth inhibition, 48 h
metric: TGI

The examples below pair each entry with its known result.
TGI recorded for this compound, `CC[C@H](C)[C@H](NC(=O)CN(C)C)C(=O)N(C)[C@H](C[C@@H](OC(C)=O)c1nc(C(=O)NC23CC(C(=O)OC)(C2)C3)cs1)C(C)C` , is > 25 µM

TGI recorded for this compound, `COc1cc2c(=O)[nH]c3cc([N+](=O)[O-])ccc3c2cc1[N+](=O)[O-]` , is > 100 µM

New cases:
TGI recorded for this compound, `CCc1nc(N)nc(N)c1-c1ccc(N2CCNCC2)cc1` , is > 100 µM
